# testSystem: ATM enzyme (human) (Homo sapiens, UniProt Q13315)
# Sequence (Q13315 whole entry): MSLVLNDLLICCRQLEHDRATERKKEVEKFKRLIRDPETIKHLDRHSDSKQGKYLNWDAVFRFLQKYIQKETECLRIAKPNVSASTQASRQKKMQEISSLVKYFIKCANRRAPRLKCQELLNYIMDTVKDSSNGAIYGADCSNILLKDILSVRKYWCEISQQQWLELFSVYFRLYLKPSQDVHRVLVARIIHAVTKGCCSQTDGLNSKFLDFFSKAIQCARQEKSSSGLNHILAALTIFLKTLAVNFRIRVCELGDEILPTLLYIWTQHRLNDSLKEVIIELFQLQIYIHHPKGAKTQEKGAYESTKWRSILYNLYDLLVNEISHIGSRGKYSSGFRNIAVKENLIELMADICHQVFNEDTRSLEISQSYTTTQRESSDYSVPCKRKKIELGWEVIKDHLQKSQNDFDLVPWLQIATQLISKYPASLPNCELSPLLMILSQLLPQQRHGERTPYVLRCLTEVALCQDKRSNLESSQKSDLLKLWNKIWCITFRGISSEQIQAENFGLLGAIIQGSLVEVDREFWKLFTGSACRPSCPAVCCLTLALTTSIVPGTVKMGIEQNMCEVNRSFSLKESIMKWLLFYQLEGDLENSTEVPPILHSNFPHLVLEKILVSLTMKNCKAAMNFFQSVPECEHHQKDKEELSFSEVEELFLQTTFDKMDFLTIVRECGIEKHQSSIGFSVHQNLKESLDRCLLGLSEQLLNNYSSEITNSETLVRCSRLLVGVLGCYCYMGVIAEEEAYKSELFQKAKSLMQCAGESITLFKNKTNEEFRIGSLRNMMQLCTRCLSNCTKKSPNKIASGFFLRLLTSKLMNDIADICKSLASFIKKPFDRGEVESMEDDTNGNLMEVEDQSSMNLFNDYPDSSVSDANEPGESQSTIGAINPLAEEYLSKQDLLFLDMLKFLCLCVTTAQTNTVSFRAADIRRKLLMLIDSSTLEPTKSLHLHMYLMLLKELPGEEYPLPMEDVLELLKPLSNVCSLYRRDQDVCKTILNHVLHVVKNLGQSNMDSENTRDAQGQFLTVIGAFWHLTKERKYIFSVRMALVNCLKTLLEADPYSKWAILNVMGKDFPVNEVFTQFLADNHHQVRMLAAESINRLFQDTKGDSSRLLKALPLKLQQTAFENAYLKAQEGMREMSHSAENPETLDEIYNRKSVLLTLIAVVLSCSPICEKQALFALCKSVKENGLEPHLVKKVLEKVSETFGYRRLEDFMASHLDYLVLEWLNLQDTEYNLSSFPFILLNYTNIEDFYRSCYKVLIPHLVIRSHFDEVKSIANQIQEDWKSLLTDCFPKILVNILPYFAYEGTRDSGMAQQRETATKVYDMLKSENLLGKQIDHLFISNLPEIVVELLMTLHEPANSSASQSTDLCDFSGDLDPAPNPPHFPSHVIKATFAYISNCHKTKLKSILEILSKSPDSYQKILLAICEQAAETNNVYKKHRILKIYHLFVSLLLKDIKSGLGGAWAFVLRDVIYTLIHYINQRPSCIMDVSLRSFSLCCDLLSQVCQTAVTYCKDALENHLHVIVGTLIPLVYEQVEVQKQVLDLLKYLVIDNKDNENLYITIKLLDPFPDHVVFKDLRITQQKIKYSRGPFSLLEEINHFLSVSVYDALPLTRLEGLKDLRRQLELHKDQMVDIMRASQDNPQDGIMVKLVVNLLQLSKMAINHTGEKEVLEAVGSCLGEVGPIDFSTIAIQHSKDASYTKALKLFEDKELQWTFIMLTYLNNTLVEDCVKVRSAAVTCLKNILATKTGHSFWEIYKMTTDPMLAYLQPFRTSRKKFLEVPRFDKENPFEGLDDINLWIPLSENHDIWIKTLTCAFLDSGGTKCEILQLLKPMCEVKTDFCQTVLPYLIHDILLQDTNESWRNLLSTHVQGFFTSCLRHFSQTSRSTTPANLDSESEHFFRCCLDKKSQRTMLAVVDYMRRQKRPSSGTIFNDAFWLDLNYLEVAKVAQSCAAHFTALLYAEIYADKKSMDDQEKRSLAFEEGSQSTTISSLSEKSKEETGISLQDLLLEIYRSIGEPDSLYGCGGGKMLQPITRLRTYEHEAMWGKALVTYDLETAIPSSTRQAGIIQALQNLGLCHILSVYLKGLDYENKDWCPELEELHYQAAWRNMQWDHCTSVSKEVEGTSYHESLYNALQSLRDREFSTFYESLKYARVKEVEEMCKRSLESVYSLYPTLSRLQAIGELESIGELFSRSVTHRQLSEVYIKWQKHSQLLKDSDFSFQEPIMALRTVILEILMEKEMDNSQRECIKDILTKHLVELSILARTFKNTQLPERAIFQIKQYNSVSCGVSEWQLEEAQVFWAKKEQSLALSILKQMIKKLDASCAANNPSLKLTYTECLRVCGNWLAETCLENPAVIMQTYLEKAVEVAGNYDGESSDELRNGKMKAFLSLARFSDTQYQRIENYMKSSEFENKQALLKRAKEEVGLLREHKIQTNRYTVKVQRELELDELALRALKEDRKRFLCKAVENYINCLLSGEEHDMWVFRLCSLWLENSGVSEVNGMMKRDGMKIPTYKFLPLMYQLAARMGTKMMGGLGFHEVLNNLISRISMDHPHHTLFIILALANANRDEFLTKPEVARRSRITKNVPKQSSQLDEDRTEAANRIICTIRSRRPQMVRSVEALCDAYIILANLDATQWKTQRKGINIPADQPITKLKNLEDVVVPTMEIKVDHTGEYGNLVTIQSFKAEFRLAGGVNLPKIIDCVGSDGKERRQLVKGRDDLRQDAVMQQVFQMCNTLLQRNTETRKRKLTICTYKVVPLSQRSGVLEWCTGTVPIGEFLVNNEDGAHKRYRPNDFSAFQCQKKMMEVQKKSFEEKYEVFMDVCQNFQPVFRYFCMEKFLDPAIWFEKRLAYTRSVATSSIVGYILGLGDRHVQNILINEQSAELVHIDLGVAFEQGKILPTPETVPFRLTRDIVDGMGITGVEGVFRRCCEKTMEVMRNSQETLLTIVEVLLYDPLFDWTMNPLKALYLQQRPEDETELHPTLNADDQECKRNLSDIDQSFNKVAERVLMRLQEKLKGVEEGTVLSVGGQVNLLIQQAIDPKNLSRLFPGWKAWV
# assayMethodText: ATM kinase assay (HTRF, GST-cMyc-p53 substrate)
# Assay type: biochemical
# experimentalContext: 0.5 h; C 0.1 μm (final concentration of compound); read-out: Inh (%) of ATM kinase
Each entry below carries its recorded inhibition at 0.1 µM.

{"columns": ["compound", "u", "inhibition at 0.1 µM"],
 "data": [
  ["CN(C)C1CCN(c2ccc(-c3ccc4ncc5nnc(C6CCOCC6)n5c4c3)cc2C(F)(F)F)CC1 [Example 47]", "%", 96],
  ["CN(C)CCCOc1ccc(-c2ccc3ncc4nnc(N5CCCCC5)n4c3c2)cc1 [Example 20]", "%", 99],
  ["CN(C)CCCOc1ccc(-c2ccc3ncc4nnc(-c5c[nH]cn5)n4c3c2)cc1 [Example 29]", "%", 81],
  ["CN(C)CCCOc1ccc(-c2ccc3ncc4nnc(CN5CCOCC5)n4c3c2)cc1 [Example 27]", "%", 84]
]}
